# STUDY_SYSTEM: SARM1 (ARM-SAM-TIR) (Homo sapiens (Human), UniProt Q6SZW1)
# Sequence (Q6SZW1 other isoform, or with tags, fused parts or gaps): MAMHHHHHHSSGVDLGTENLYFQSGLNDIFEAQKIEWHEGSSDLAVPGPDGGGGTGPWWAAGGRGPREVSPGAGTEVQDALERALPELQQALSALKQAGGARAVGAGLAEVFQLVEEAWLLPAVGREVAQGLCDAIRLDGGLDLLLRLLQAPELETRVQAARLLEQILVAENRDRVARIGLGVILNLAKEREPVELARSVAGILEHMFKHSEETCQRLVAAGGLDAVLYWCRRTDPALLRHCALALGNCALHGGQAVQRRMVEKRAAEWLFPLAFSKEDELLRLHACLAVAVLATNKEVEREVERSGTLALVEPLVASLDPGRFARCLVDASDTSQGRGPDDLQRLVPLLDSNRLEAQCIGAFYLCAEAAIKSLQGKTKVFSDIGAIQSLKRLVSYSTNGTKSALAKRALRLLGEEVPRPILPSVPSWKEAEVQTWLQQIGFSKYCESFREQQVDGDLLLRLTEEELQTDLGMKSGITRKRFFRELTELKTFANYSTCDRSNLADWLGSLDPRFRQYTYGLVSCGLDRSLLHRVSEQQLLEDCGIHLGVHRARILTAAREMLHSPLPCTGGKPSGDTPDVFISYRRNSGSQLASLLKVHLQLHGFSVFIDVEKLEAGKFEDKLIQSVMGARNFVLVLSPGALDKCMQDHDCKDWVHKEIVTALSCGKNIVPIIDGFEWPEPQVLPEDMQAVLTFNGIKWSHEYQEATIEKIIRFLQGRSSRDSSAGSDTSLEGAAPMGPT
# TEST_DESCRIPTION: ARM-SAM-TIR SARM1 IC50 assay (NADase activity, NAD+ cleavage, RapidFire MS)
# CONDITION_PARAMETERS: ARM-SAM-TIR lysate 5 μg/mL, 2 h pre-incubation, 5 μM NAD+, 2 hr room temperature
pIC50: −log10 of the molar value.
READOUT: pIC50

[[record]]
compound = "O=C(Nc1nc(-c2ccncc2)n[nH]1)c1ccccc1"
observed_value = "4.82 to 5.30"

[[record]]
compound = "Cc1c(-c2ccncc2)n[nH]c1NC(=O)COc1ccc(Cl)cc1"
observed_value = "> 5.30"

[[record]]
compound = "O=C(CCc1ccc(F)c(F)c1)Nc1nnc(-c2ccncc2)[nH]1"
observed_value = "> 5.30"

[[record]]
compound = "O=C(Nc1nnc(-c2ccncc2)[nH]1)N1CCc2nc(Cl)ccc2C1"
observed_value = "> 5.30"

[[record]]
compound = "O=C(Nc1nnc(-c2ccncc2)[nH]1)[C@@H]1C[C@H]1c1ccccc1"
observed_value = "4.82 to 5.30"

[[record]]
compound = "COCc1c(-c2ccncc2)n[nH]c1NC(=O)CCc1ccc(Cl)nc1"
observed_value = "> 5.30"

[[record]]
compound = "O=C(C[C@@H]1CCOc2cc(Cl)ccc21)Nc1cc(-c2ccnnc2)n[nH]1"
observed_value = "> 5.30"

[[record]]
compound = "O=C(CCc1ccccc1Cl)Nc1nnc(-c2ccncc2)[nH]1"
observed_value = "> 5.30"

[[record]]
compound = "Cc1c(-c2ccncc2)n[nH]c1NC(=O)CCNC(=O)C1CC1C (stereo not drawn)"
observed_value = "4.82 to 5.30"


* * *

# STUDY_SYSTEM: SARM1 (ARM-SAM-TIR) (Homo sapiens (Human), UniProt Q6SZW1)
# TEST_DESCRIPTION: ARM-SAM-TIR SARM1 IC50 assay (NADase activity, NAD+ cleavage, RapidFire MS)
# CONDITION_PARAMETERS: ARM-SAM-TIR lysate 5 μg/mL, 2 h pre-incubation, 5 μM NAD+, 2 hr room temperature
IC50 for assorted compounds
READOUT: IC50

[[record]]
compound = "O=C(Nc1nnc(-c2ccncc2)[nH]1)C12CC(c3ccccc3)(C1)C2 [Example 66]"
readout = "IC50"
observed_value = "< 5 µM"

[[record]]
compound = "O=C(NCc1ccc(Cl)nc1)Nc1nnc(-c2ccncc2)[nH]1 [Example 165]"
readout = "IC50"
observed_value = "< 5 µM"

[[record]]
compound = "O=C(Nc1nnc(-c2ccncc2)[nH]1)N1CCc2cc(Cl)ncc2C1 [Example 296]"
readout = "IC50"
observed_value = "< 5 µM"

[[record]]
compound = "O=C(CC1COCc2ccccc21)Nc1nnc(-c2ccncc2)[nH]1 (centres unmarked) [Example 73]"
readout = "IC50"
observed_value = "5 to 15 µM"

[[record]]
compound = "O=C(CCc1ccc(Cl)cc1)Nc1nnc(-c2ccnnc2)[nH]1 [Example 53]"
readout = "IC50"
observed_value = "< 5 µM"

[[record]]
compound = "Cc1c(-c2ccncc2F)n[nH]c1NC(=O)[C@H]1C[C@H](c2ccc(Cl)cc2)C1 [Example 318]"
readout = "IC50"
observed_value = "< 5 µM"

[[record]]
compound = "[2H]C([2H])(C(=O)Nc1cc(-c2ccnnc2)n[nH]1)C([2H])([2H])c1ccc(Cl)nc1 [Example 190]"
readout = "IC50"
observed_value = "< 5 µM"

[[record]]
compound = "O=C(Nc1cc(-c2ccnnc2)n[nH]1)[C@H]1C[C@H](c2ccc(Cl)nc2)C1 [Example 210]"
readout = "IC50"
observed_value = "< 5 µM"

[[record]]
compound = "Cc1c(-c2ccncc2)n[nH]c1NC(=O)CC1Cc2ccccc2C1 [Example 199]"
readout = "IC50"
observed_value = "5 to 15 µM"

[[record]]
compound = "O=C(CN1C(=O)COc2cc(Cl)ccc21)Nc1nnc(-c2ccncc2)[nH]1 [Example 39]"
readout = "IC50"
observed_value = "> 30 µM"

[[record]]
compound = "CCc1c(-c2ccncc2)n[nH]c1NC(=O)CCc1ccc(Cl)nc1 [Example 219]"
readout = "IC50"
observed_value = "< 5 µM"

[[record]]
compound = "Cc1c(-c2ccncc2)n[nH]c1NC(=O)CNC(=O)CC(C)(C)C [Example 259]"
readout = "IC50"
observed_value = "5 to 15 µM"

[[record]]
compound = "O=C(Nc1nnc(-c2ccncc2)[nH]1)C1Cc2ccccc2C1 [Example 116]"
readout = "IC50"
observed_value = "5 to 15 µM"

[[record]]
compound = "Cc1cc(-c2n[nH]c(NC(=O)CCc3ccc(Cl)cc3)n2)ccn1 [Example 42]"
readout = "IC50"
observed_value = "> 30 µM"

[[record]]
compound = "O=C(CCc1ccc(Cl)cc1)Nc1cc(-c2ccnnc2)[nH]n1 [Example 40]"
readout = "IC50"
observed_value = "< 5 µM"

[[record]]
compound = "O=C(CCc1ccc(Cl)cc1)Nc1cc(-c2ccncc2)cnc1O [Example 51]"
readout = "IC50"
observed_value = "> 30 µM"

[[record]]
compound = "N#Cc1c(-c2ccncc2F)n[nH]c1NC(=O)CCc1ccc(Cl)nc1 [Example 281]"
readout = "IC50"
observed_value = "< 5 µM"

[[record]]
compound = "[2H]C([2H])(C(=O)Nc1nnc(-c2ccnnc2)[nH]1)C([2H])([2H])c1ccc(Cl)cc1 [Example 230]"
readout = "IC50"
observed_value = "< 5 µM"

[[record]]
compound = "O=C(Cc1ccc(Cl)cc1)Nc1nnc(-c2ccncc2)[nH]1 [Example 65]"
readout = "IC50"
observed_value = "< 5 µM"

[[record]]
compound = "NC(=O)Cc1c(-c2ccncc2)n[nH]c1NC(=O)CCc1ccc(Cl)cc1 [Example 302]"
readout = "IC50"
observed_value = "< 5 µM"

[[record]]
compound = "O=C(CCc1ccc(Cl)cc1)Nc1cc(-c2ccncc2C2CC2)n[nH]1 [Example 298]"
readout = "IC50"
observed_value = "< 5 µM"

[[record]]
compound = "N#Cc1c(-c2ccnnc2)n[nH]c1NC(=O)CCc1ccc(Cl)nc1 [Example 304]"
readout = "IC50"
observed_value = "< 5 µM"

[[record]]
compound = "O=C(CC1CCOc2cc(Cl)ccc21)Nc1nnc(-c2ccnnc2)[nH]1 (centres unmarked) [Example 193]"
readout = "IC50"
observed_value = "< 5 µM"

[[record]]
compound = "Cc1c(-c2ccncc2)n[nH]c1NC(=O)[C@@H](N)Cc1ccc(Cl)cc1 [Example 201]"
readout = "IC50"
observed_value = "< 5 µM"

[[record]]
compound = "O=C(CCc1cn2ccccc2n1)Nc1nnc(-c2ccncc2)[nH]1 [Example 123]"
readout = "IC50"
observed_value = "15 to 30 µM"

[[record]]
compound = "O=C(CCc1ccc(Cl)cc1)Nc1nnc(-c2ccncc2F)[nH]1 [Example 11]"
readout = "IC50"
observed_value = "< 5 µM"

[[record]]
compound = "N#Cc1ccc(CCC(=O)Nc2nnc(-c3ccncc3)[nH]2)cc1 [Example 119]"
readout = "IC50"
observed_value = "< 5 µM"

[[record]]
compound = "O=C(C[C@H]1CCOc2cc(Cl)ncc21)Nc1nnc(-c2ccncc2)[nH]1 [Example 234]"
readout = "IC50"
observed_value = "< 5 µM"

[[record]]
compound = "CN(Cc1ccc(Cl)cc1)C(=O)Nc1nnc(-c2ccncc2)[nH]1 [Example 164]"
readout = "IC50"
observed_value = "< 5 µM"


* * *

IC50 for assorted compounds
# STUDY_SYSTEM: SARM1 (ARM-SAM-TIR) (Homo sapiens (Human))
# TEST_DESCRIPTION: ARM-SAM-TIR SARM1 IC50 assay (NADase activity, NAD+ cleavage, RapidFire MS)
# CONDITION_PARAMETERS: ARM-SAM-TIR lysate 5 μg/mL, 2 h pre-incubation, 5 μM NAD+, 2 hr room temperature
READOUT: IC50

[[record]]
compound = "O=C(CNc1ccccc1)Nc1nnc(-c2ccncc2)[nH]1"
study_system = "SARM1 (ARM-SAM-TIR) (Homo sapiens (Human))"
readout = "IC50"
observed_value = "5 to 15 µM"

[[record]]
compound = "O=C(CCc1ccc(Cl)cc1Cl)Nc1nnc(-c2ccncc2)[nH]1"
study_system = "SARM1 (ARM-SAM-TIR) (Homo sapiens (Human))"
readout = "IC50"
observed_value = "< 5 µM"

[[record]]
compound = "O=C(CCc1ccc(Cl)cc1)Nc1[nH]nc(-c2ccncc2)c1Br"
study_system = "SARM1 (ARM-SAM-TIR) (Homo sapiens (Human))"
readout = "IC50"
observed_value = "< 5 µM"

[[record]]
compound = "O=C(CCc1ccc(OC(F)F)cc1)Nc1nnc(-c2ccncc2)[nH]1"
study_system = "SARM1 (ARM-SAM-TIR) (Homo sapiens (Human))"
readout = "IC50"
observed_value = "< 5 µM"

[[record]]
compound = "O=C(CCc1ccc(O)cc1)Nc1nnc(-c2ccncc2)[nH]1"
study_system = "SARM1 (ARM-SAM-TIR) (Homo sapiens (Human))"
readout = "IC50"
observed_value = "> 30 µM"

[[record]]
compound = "Nc1cc(-c2n[nH]c(NC(=O)CCc3ccc(Cl)cc3)n2)ccn1"
study_system = "SARM1 (ARM-SAM-TIR) (Homo sapiens (Human))"
readout = "IC50"
observed_value = "< 5 µM"

[[record]]
compound = "O=C(CC1CCOc2cc(Cl)ccc21)Nc1cc(-c2ccnnc2)n[nH]1 (stereo not drawn)"
study_system = "SARM1 (ARM-SAM-TIR) (Homo sapiens (Human))"
readout = "IC50"
observed_value = "< 5 µM"

[[record]]
compound = "N#Cc1c(-c2ccncc2F)n[nH]c1NC(=O)CCc1ccc(Cl)cc1"
study_system = "SARM1 (ARM-SAM-TIR) (Homo sapiens (Human))"
readout = "IC50"
observed_value = "< 5 µM"

[[record]]
compound = "O=C(Nc1nnc(-c2ccncc2)[nH]1)C1CCc2ccccc2C1 (stereo not drawn)"
study_system = "SARM1 (ARM-SAM-TIR) (Homo sapiens (Human))"
readout = "IC50"
observed_value = "< 5 µM"

[[record]]
compound = "O=C(CC1CCOc2cc(Cl)ncc21)Nc1nnc(-c2ccncc2)[nH]1 (stereo not drawn)"
study_system = "SARM1 (ARM-SAM-TIR) (Homo sapiens (Human))"
readout = "IC50"
observed_value = "< 5 µM"

[[record]]
compound = "Cc1cnccc1-c1cc(NC(=O)CCc2ccc(Cl)cc2)[nH]n1"
study_system = "SARM1 (ARM-SAM-TIR) (Homo sapiens (Human))"
readout = "IC50"
observed_value = "< 5 µM"

[[record]]
compound = "Cc1c(-c2ccncc2)n[nH]c1NC(=O)N1CC(c2ccccc2)C1"
study_system = "SARM1 (ARM-SAM-TIR) (Homo sapiens (Human))"
readout = "IC50"
observed_value = "< 5 µM"

[[record]]
compound = "Cc1c(-c2ccncc2)n[nH]c1NC(=O)CN(C)c1ccc(Cl)cc1"
study_system = "SARM1 (ARM-SAM-TIR) (Homo sapiens (Human))"
readout = "IC50"
observed_value = "5 to 15 µM"

[[record]]
compound = "CN(C)C(=O)Cc1c(-c2ccncc2)n[nH]c1NC(=O)CCc1ccc(Cl)cc1"
study_system = "SARM1 (ARM-SAM-TIR) (Homo sapiens (Human))"
readout = "IC50"
observed_value = "< 5 µM"

[[record]]
compound = "[2H]C([2H])(C(=O)Nc1cc(-c2ccnnc2)n[nH]1)C([2H])([2H])c1ccc(Cl)cc1"
study_system = "SARM1 (ARM-SAM-TIR) (Homo sapiens (Human))"
readout = "IC50"
observed_value = "< 5 µM"

